Tested on: Sonic hedgehog protein (Shh)
assay: small-molecule binders of Shh protein, primary screen, biochemical, small-molecule microarray, 635/667 nm fluorescence (AID 1151);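 also: Shh protein binding to compounds spotted on small-molecule microarray slides; score combines spot fluorescence intensity with signal-to-noise across triplicate slides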
test context: small-molecule microarray binding, 635 nm fluorescence; higher = more signal
composite z-score values, listed per item

- entry smiles: "COc1ccc([Si](C)(C)[C@H]2[C@H](CCO)O[C@@]3(C(=O)N(Cc4ccccc4)c4ccc(N5C(=O)c6cccc7cccc5c67)cc43)[C@@H]2C)cc1"
  composite z-score: 0.145
- entry smiles: "COCCOC(=O)N1C(=O)[C@@]2(c3cc(C#CCCO)ccc31)[C@H](C(=O)N1CCCCCCC1)[C@H]1C(=O)O[C@H](c3ccccc3)[C@H](c3ccccc3)N1[C@@H]2c1ccc(O)cc1"
  composite z-score: 1.06
- entry smiles: "CCCNC(=O)[C@@H]1c2ccccc2C(=O)N(Cc2cc(F)cc(C(F)(F)F)c2)[C@H]1c1ccc(CO)cc1"
  composite z-score: 1.93
- entry smiles: "CSCC[C@@H]1NC(=O)CC=C[C@@H](C)COC(=O)[C@H](CCSC)NC(=O)CC=C[C@@H](C)COC1=O"
  composite z-score: 0.493
- entry smiles: "CCCC=C(CCC)[C@@H](NS(=O)(=O)c1ccc(-c2ccccc2)cc1)c1ccc(C(=O)OC)cc1"
  composite z-score: -0.948
- entry smiles: "C[C@H]1COC(=O)[C@H](Cc2ccccc2)NC(=O)[C@@H](C)COC(=O)[C@H](Cc2ccccc2)NC1=O"
  composite z-score: 1.13
- entry smiles: "Cc1ccc(S[C@]2(C(=O)NCCCN(C)C)CC(=O)N(C3CCCCC3)[C@@H]2c2ccc(CO)cc2I)cc1"
  composite z-score: 0.0709
- entry smiles: "[N-]=[N+]=NCc1ccccc1C[C@@]1(C(=O)O)N=C(c2ccc(OCCCO)cc2)O[C@@H]1c1ccccc1N=[N+]=[N-]"
  composite z-score: -0.165
- entry smiles: "COc1cccc([C@@H]2[C@@H](C)CC[C@H]3C(=O)N(C)[C@@H](C(C)C)C(=O)N23)c1"
  composite z-score: 0.39
- entry smiles: "COc1ccc([Si](C)(C)[C@H]2[C@H](CC(=O)N3Cc4ccccc4C[C@H]3CO)O[C@@]3(C(=O)N(Cc4cccc(N5CCOC5=O)c4)c4ccccc43)[C@@H]2C)cc1"
  composite z-score: 1.37
- entry smiles: "C=CC[C@@]1(C(=O)N2CCOCC2)N=C(c2ccc(OCCCO)cc2)O[C@@H]1c1ccccc1"
  composite z-score: -0.571
- entry smiles: "COC(=O)[C@@]1(Cc2ccc(OC)cc2)[C@H]2c3cc(C(=O)N(C)C)n(Cc4ccc(C)c(F)c4F)c3C[C@H]2CN1C(=O)c1ccccc1"
  composite z-score: -1.09
- entry smiles: "COc1cccc([C@@H]2[C@@H](C)CC[C@H]3C(=O)N4[C@H](c5cccc(OC)c5)[C@@H](C)CC[C@H]4C(=O)N23)c1"
  composite z-score: 0.944
- entry smiles: "CO[C@H]1COC(=O)CC=C[C@@H](C)COC(=O)[C@@H](C)NC(=O)CC=C[C@@H]1C"
  composite z-score: 2.06

* * *

measured target: Pro-neuregulin-1, membrane-bound isoform (Homo sapiens) (UniProt Q02297)
Sequence (Q02297 whole entry, looked up, canonical isoform): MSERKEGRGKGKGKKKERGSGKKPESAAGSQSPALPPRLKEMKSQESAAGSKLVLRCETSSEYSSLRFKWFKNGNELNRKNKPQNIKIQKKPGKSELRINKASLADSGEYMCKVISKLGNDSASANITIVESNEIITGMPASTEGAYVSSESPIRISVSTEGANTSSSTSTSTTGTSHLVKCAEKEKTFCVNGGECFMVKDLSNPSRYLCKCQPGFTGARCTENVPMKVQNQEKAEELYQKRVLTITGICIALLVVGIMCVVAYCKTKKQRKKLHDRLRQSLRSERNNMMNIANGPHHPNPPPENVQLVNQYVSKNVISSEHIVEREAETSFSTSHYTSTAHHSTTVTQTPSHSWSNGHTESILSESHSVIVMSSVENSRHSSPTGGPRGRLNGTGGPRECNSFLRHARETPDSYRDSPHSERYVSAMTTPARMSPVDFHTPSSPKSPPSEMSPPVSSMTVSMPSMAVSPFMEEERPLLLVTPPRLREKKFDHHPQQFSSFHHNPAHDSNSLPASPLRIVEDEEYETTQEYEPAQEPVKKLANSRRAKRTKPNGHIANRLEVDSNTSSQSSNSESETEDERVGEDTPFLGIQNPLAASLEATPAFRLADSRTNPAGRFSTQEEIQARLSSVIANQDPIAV
assay: NRG1 binders on small-molecule microarrays, primary screen, psychiatric disease protein project, biochemical, small-molecule microarray, fluorescence 635/667 (AID 1075);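 also: score combines 667 nm spot fluorescence with signal to noise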
test context: NRG1 binding, 635 nm fluorescence, higher = more signal
composite z-score values, listed per item

- compound: "COCCOC(=O)N1C(=O)[C@@]2(c3cc(C#CCCO)ccc31)[C@H](c1ccc(O)cc1)N1[C@H](c3ccccc3)[C@H](c3ccccc3)OC(=O)[C@H]1[C@@H]2C(=O)Nc1nc2ccccc2s1"
  composite z-score: 0.227
- compound: "C=CCC(OC(C)=O)[C@@H]1[C@@H](N(Cc2cccc3ccccc23)C(=O)Cc2ccc(F)cc2)c2cc(OCCCO)ccc2N1C(=O)Cc1ccc2ccccc2c1 (stereo partly drawn)"
  composite z-score: -0.58
- compound: "CC[C@H]1C2=C3C(CC[C@H]4C(OC)OC[C@](C)([C@@H]34)N(C(=O)OC(C)(C)C)C2)C(CO)C1CO (stereo partly drawn)"
  composite z-score: 1.32

* * *

Tested on: glycogen synthase kinase-3 (GSK3A per assay name; protocol says GSK3B)
assay: GSK3 binders on small-molecule microarrays, primary screen, biochemical, small-molecule microarray, 635 nm fluorescence, GSK3A (AID 1103); also: the record names both GSK3A and GSK3B
test context: small-molecule microarray binding, fluorescence 635 nm; higher = more signal
Hi, to clarify the labels: met covers composite z-score from 0.4 upward, not met covers anything below 0.4.

- molecule: "CCN1C(C)=C(C(=O)OC)[C@@H](c2ccccc2)N2C(=O)[C@@]3(C(=O)OC)O[C@@]12[C@@H]1C(=O)N(C)C(=O)[C@@H]13"
  assigned category: "met"
- molecule: "CCCC[C@H]1OB(O)C[C@H]2C1=C(COC)C[C@H]1C(=O)N(Cc3ccccc3)C(=O)[C@H]12"
  assigned category: "not met"
- molecule: "C=CCNC(=O)[C@@H]1[C@H]2C(=O)O[C@H](c3ccccc3)[C@H](c3ccccc3)N2[C@H](c2ccc(OCCO)cc2)[C@@]12C(=O)N(C(=O)OCCOC)c1ccc(C#CC3(O)CCCCCC3)cc12"
  assigned category: "met"
- molecule: "CCCC=C(CCC)[C@@H](NS(=O)(=O)c1ccc(C(F)(F)F)cc1)c1ccc(-c2ccccc2)cc1"
  assigned category: "met"
- molecule: "COCCOC(=O)N1C(=O)[C@@]2(c3cc(C#CCC(C(=O)OC)C(=O)OC)ccc31)[C@H](c1ccccc1OCCO)N1[C@H](c3ccccc3)[C@H](c3ccccc3)OC(=O)[C@H]1[C@@H]2C(=O)N1CCCCCCC1"
  assigned category: "met"
- molecule: "CO[C@H]1O[C@H](CO)[C@@H](OC(=O)Nc2ccccc2)[C@H](OC(=O)Nc2ccc3c(c2)OCO3)[C@@H]1OC(=O)Nc1ccc2c(c1)OCO2"
  assigned category: "met"
- molecule: "CO[C@@H]1COC(=O)[C@H](C)NC(=O)CC=C[C@@H](C)[C@H](NS(=O)(=O)c2ccc(C)cc2)COC(=O)CC=C[C@@H]1C"
  assigned category: "not met"
- molecule: "C=CCN1C(=O)[C@@]2(Cc3ccccc3)N=C(c3ccc(OCCCO)cc3)O[C@H]2c2ccccc21"
  assigned category: "met"
- molecule: "CC(=O)NCCCC[C@@H]1NC(=O)[C@@H]2C[C@H](C(=O)NCCCCCNC(=O)CS)[C@H](c3ccc(O)cc3)N2C1=O"
  assigned category: "not met"
- molecule: "COC(=O)c1ccc(C#CC(NP(=O)(c2ccccc2)c2ccccc2)c2ccccc2)cc1 (centres undefined)"
  assigned category: "not met"
- molecule: "[N-]=[N+]=NCc1ccccc1C[C@]1(C(N)=O)N=C(c2ccc(OCCCO)cc2)O[C@H]1c1ccccc1CN=[N+]=[N-]"
  assigned category: "not met"
- molecule: "CO[C@@H]1COC(=O)CC=C[C@H](C)COC(=O)[C@H](Cc2ccccc2)NC(=O)CC=C[C@H]1C"
  assigned category: "met"

* * *

z-score values, listed per item
assay: yeast growth modulation, basal conditions, primary screen, YJM789 clinical isolate, OD600, 24 h (AID 1089);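 also: growth of clinical yeast isolate S. cerevisiae YJM 789 seeded 1000 cells per well; test concentration not given here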
test context: S. cerevisiae YJM789 growth, higher = more signal, called active from +8 up or from −8 down
Calls of active or inactive are those of the source.
observable: z-score

- molecule: "C=CCc1cccc([C@@H]2[C@@H](C)CC[C@H]3C(=O)N4[C@H](c5cccc(CC=C)c5)[C@@H](C)CC[C@H]4C(=O)N23)c1"
  reported value: "-0.988 (inactive)"
- molecule: "COc1ccc([C@H]2C[C@H]3C(Br)=C[C@]2(OC)C(=O)[C@]32CO2)cc1"
  reported value: "-0.714 (inactive)"
- molecule: "COC(=O)c1ccc(C#CC(NP(=O)(c2ccccc2)c2ccccc2)c2ccccc2)cc1 (centres undefined)"
  reported value: "-0.664 (inactive)"
- molecule: "COc1ccc([Si](C)(C)[C@@H]2[C@@H](CCO)O[C@]3(C(=O)N(Cc4ccc(NC(=O)[C@H](C)O)cc4)c4ccccc43)[C@H]2C)cc1"
  reported value: "3.17 (inactive)"
- molecule: "O=C1C2C=CC(C(O)C#Cc3ccccc3)N(Nc3ccccc3)C2C(=O)N1c1ccccc1 (centres undefined)"
  reported value: "0.132 (inactive)"
- molecule: "C=CC[C@@]1(C(=O)N2CCOCC2)N=C(c2ccc(OCCCO)cc2)O[C@@H]1c1ccccc1"
  reported value: "0.509 (inactive)"
- molecule: "O=C1c2ccccc2[C@](Cc2ccccc2I)(C(=O)NCc2ccccc2)[C@H](c2ccc(CO)cc2)N1Cc1ccccc1C(F)(F)F"
  reported value: "0.417 (inactive)"
- molecule: "Cc1ccc(S(=O)(=O)N[C@H]2COC(=O)CC=C[C@H](C)COC(=O)N[C@@H](C)C(=O)CC=C[C@@H]2C)cc1"
  reported value: "-0.11 (inactive)"
- molecule: "O=C1OCCC=C[C@H]2OC34C=CCN(Cc5ccccc5)C(=O)[C@H]3N(CCO)C(=O)[C@@H]4C12 (some centres undefined)"
  reported value: "-2.04 (inactive)"
- molecule: "O=C1c2ccccc2[C@](Cc2ccccc2I)(C(=O)O)[C@H](c2ccc(CO)cc2)N1C1CCCCC1"
  reported value: "-0.602 (inactive)"
- molecule: "C[C@@H]1C=CCC(=O)OC[C@H]2O[C@@H](C=C[C@@H]2O)[C@H](C)C=CCC(=O)OC[C@H]2O[C@H]1C=C[C@@H]2O"
  reported value: "-2.14 (inactive)"
- molecule: "C=C(COC)/C(=C/C[C@H](OC(C)=O)c1ccc(OCCO)cc1)c1cnc2ccccc2c1"
  reported value: "1.53 (inactive)"
- molecule: "CCOC(=O)C[C@H]1[C@H](OC(=O)c2cc3ccccc3oc2=O)[C@@H](NC(=O)C2CCCCC2)c2cc(OCCCO)ccc2N1C(=O)c1ccc2ccccc2n1"
  reported value: "0.152 (inactive)"
- molecule: "COC(=O)[C@@]1(Cc2ccccc2CN=[N+]=[N-])N=C(c2ccc(OCCCO)cc2)O[C@H]1c1ccccc1N=[N+]=[N-]"
  reported value: "0.763 (inactive)"
- molecule: "CN1C2C=C(c3ccc(CO)cc3)C(C3C(=O)N(C(N)=O)C(=O)C32)C1c1cccs1 (centres undefined)"
  reported value: "0.697 (inactive)"
- molecule: "N#Cc1ccc(NN2C(C(O)c3ccc(I)cc3)C=CC3C(=O)N(c4ccccc4)C(=O)C32)cc1 (centres undefined)"
  reported value: "0.647 (inactive)"
- molecule: "COc1ccc([Si](C)(C)[C@H]2[C@H](CCO)O[C@@]3(C(=O)N(Cc4ccc(N5CCCCC5=O)cc4)c4ccccc43)[C@@H]2C)cc1"
  reported value: "-0.025 (inactive)"
- molecule: "CC1CC/C=C\\[C@H]2OC34C=CCN(Cn5nnc6ccccc65)C(=O)[C@H]3N(C(C)CO)C(=O)[C@@H]4C2C(=O)O1 (some centres undefined)"
  reported value: "0.799 (inactive)"
- molecule: "Cc1ccc(S[C@]2(C(=O)NC3CC3)CC(=O)N(Cc3cc(C(F)(F)F)cc(C(F)(F)F)c3)[C@@H]2c2ccc(CO)cc2)cc1"
  reported value: "-1.18 (inactive)"
- molecule: "CCCC=C(CCC)[C@@H](NS(=O)(=O)c1ccc(-c2ccccc2)cc1)c1ccc(C(=O)OC)cc1"
  reported value: "0.282 (inactive)"
- molecule: "NC(=O)NCC#Cc1ccc2c(c1)[C@]1(C(=O)N2)[C@H](c2ccccc2OCCO)N2[C@H](c3ccccc3)[C@H](c3ccccc3)OC(=O)[C@H]2[C@@H]1C(=O)N1CCN(c2ncccn2)CC1"
  reported value: "1.73 (inactive)"
- molecule: "CO[C@H]1COC(=O)[C@H](CCSC)NC(=O)CC=C[C@@H](C)COC(=O)[C@@H](OCc2ccccc2)C=C[C@@H]1C"
  reported value: "0.891 (inactive)"
- molecule: "C[N+](C)(C)CCCCNC(=O)[C@H]1C[C@H]2C(=O)NCC(=O)N2[C@H]1c1cccc(OCCO)c1"
  reported value: "-0.138 (inactive)"
- molecule: "CCOC(=O)C1=CC[C@@H](c2ccccc2)N(S(=O)(=O)c2ccc(C)cc2)[C@H]1C"
  reported value: "0.889 (inactive)"
- molecule: "CC/C=C/C(=O)N(C[C@@H]1CCCO1)[C@@H]1CC(C(=O)NCCO)=C[C@H](Oc2c(I)cc(CO)cc2OC)[C@H]1O"
  reported value: "-0.811 (inactive)"
- molecule: "O=C1O[C@@H](c2ccccc2)[C@@H](c2ccccc2)N2[C@@H](c3ccc(O)cc3)[C@]3(C(=O)Nc4ccc(C#CC5(O)CCCCCC5)cc43)[C@@H](C(=O)Nc3nc4ccccc4s3)[C@H]12"
  reported value: "0.775 (inactive)"
- molecule: "CSCC[C@@H]1NC(=O)CC=C[C@@H](C)COC(=O)[C@H](CCSC)NC(=O)CC=C[C@@H](C)COC1=O"
  reported value: "-0.981 (inactive)"
- molecule: "COCC(=C=CC[C@H](O)c1ccc(OCCO)cc1)C[C@H](O)c1ccccn1"
  reported value: "0.725 (inactive)"
- molecule: "COc1cc2c(cc1OC)CN(C(=O)[C@@H]1[C@H]3C(=O)O[C@H](c4ccccc4)[C@H](c4ccccc4)N3[C@H](c3ccccc3OCCO)[C@@]13C(=O)Nc1ccccc13)CC2"
  reported value: "2.39 (inactive)"
